Test system: MS2 coat protein
testDetails: apparent KD of MS2 coat protein; designed switch direction (-1 OFF switch, 1 ON switch): -1; higher = weaker reporter binding
measurementContext: input ligand: none
property: apparent KD of MS2 coat protein (nM)
# number only, unit nM dropped from output

Solved entries:
inputSequence | property | recordedNumber
CUAUGUUAGCAGGAUAUGCCAUUAUUCUUUUUCGCAGAAGGGCUUACAUGAGGAUCACCCAUGUUACAUUUCUU [JR_E6_Sub086] (Eterna round: R96, puzzle: Exclusion 6) | apparent KD of MS2 coat protein | 18.5
UUGAUGUGAGGAUAUAUAUGGUUGUUUUUUUAUUUUUUAUUACUUGAGGAUCACCCAAGUAGAAGGCGCUACGU [JR_Ex2_Sub068] (Eterna round: R97, puzzle: Exclusion 2) | apparent KD of MS2 coat protein | 29.5

Can you look up the measured apparent KD of MS2 coat protein of GGCCGUAAUAAGGAUAUCACUAGCUUCGGCUAGUGAGAAGGUAUUACAUGAGGAUCACCCAUGUGAUCAGGCCA [E6/3-B1] (Eterna round: R97, puzzle: Exclusion 6) for me?
170
